Reference for the values: the supplement of paper PMC9170038

- Test system: MS2 coat protein
- experimental_protocol: apparent KD of MS2 coat protein; designed switch direction (-1 OFF switch, 1 ON switch): -1; higher = weaker reporter binding
- condition_context: Eterna round: R95; input ligand: microRNA oligo, concentration not stated
Here the recorded apparent KD of MS2 coat protein is given for each entry.
State the answer as a number, implicitly in µM.

Some solved cases for reference:
• CUGAGCAGACGGAGAUCCCACAUGAGGAUCACCCAUGUCUCAAAAGCUUUUUGCUUGUCUUAUUCUCCUCUGUUCUC [Arorza] (puzzle: Sensor v3, turn-off variant 1) = 0.1
• UUUUAACAUGAGGAUCACCCAUGUGAGGAUAUCGAAAUUUAUAUUAAUAUUUAUAUUACGAGAAGGCACAUUUU [JMF 58] (puzzle: Exclusion 1) = 0.0759

API: the following record is the query input.
Give its apparent KD of MS2 coat protein value. Item: UAUUAACAAGCAAGGUCCCACAUGAGGAUCACCCAUGUGCUCGUCUUAUAAGGUACUGUGACGAAAGUCACGGUACC [Sensor 3, v1 - 81] (puzzle: Sensor v3, turn-off variant 1)
0.469

###

- System: MS2 coat protein
- experimental_protocol: apparent KD of MS2 coat protein; designed switch direction (-1 OFF switch, 1 ON switch): 1; higher = weaker reporter binding
- condition_context: input ligand: none
Lab note: compare apparent KD of MS2 coat protein against 200 nM. Equal or greater, write label 1. Smaller, write label 0.

• AUGCCAAAUCAAGGAUAUGGAUCCUUAUUGGAUCCAGAAGGUGGGACAUGAGGAUCACCCAUGUGGCAGUGGUCUAAUGACCAC [Fiskers NG1ss - 30] (Eterna round: R96, puzzle: Same State NG 1) = label 1
• CCGGUUAAUGGAGGAUAUGGAGCCUUAUUGGCUCCAGAAGGCUAACAUGAGGAUCACCCAUGUUUACCGGCGGUCAAUAGACCG [Eli NG1ss - 62] (Eterna round: R96, puzzle: Same State NG 1) = label 0
• GAGUGGCAGUAAGGAUAUAUAGUGAUAAUCACAGUAGAAGGUACUGACAUGAGGAUCACCCAUGUAGGACUAAUCCAGAGAGAG [Parity 42 - Jieux - Same State NG 1] (Eterna round: R96, puzzle: Same State NG 1) = label 0
• CCGGUUUAUGGAGGAUAUGGAGCCUUAUUGGCUCCAGAAGGUCAAUAACAUGAGGAUCACCCAUGUCCGGCGGUCAAUAGACCG [Eli NG1ss - 69] (Eterna round: R96, puzzle: Same State NG 1) = label 1

Now examine the next entry.
In plain terms: is recorded apparent KD of MS2 coat protein at least 200 nM for UUUAGAUAGCGAGGAUAUCGCGAGGAUCACCCGUGAGAAGGCGCAGAGCCGAGGAUCACCCGGCUGAUCCUGAGAAGGAGGUCA (Eterna round: R96, puzzle: Same State NG 1) ?
label 1

###

- Test system: MS2 coat protein
- experimental_protocol: apparent KD of MS2 coat protein; designed switch direction (-1 OFF switch, 1 ON switch): -1; higher = weaker reporter binding
- condition_context: Eterna round: R95; input ligand: microRNA oligo, concentration not stated
Lab note: class by apparent KD of MS2 coat protein, see bottom end (below 40 nM), midrange (40 nM to below 100 nM), top end (100 nM or more)

• UUUAAUUUUUUUUUUUUACAAGCUUUUUGCUCGUCUUAUACAUGAGGAUCACCCAUGUGGAUGGGAGAUAAAUUAUC [JMF 19] (puzzle: Sensor v3, turn-off variant 2) = top end
• CUUACACAUGAGGAUCACCCAUGUGAGGAUAUGCGUACGUUGUCCGUAGGCGACGUGCGCAGAAGGCGCUUGGU [JL-ex1-3.19 Eli mod] (puzzle: Exclusion 1) = midrange
• CUGUCCCAAGGAUAUACAUCAGUCCCAGGGUGCCGCAUAAGACAUGAGGAUCACCCAUGUAGAAGGUGGAGACC [Esaranre] (puzzle: Exclusion 2) = midrange
• GAUUAUGCGAGCUUUAGGGACAUGAGGAUCACCCAUGUUCGUCUUAUUGGUCUAAGUGCACUAACAUACCUAAAUCU [JMF 30] (puzzle: Sensor v3, turn-off variant 1) = bottom end
• GCAGGAUAAGUGAGGAUAUACCUAUGGAUACAUAGGUAGAAGGCACAUGAGGAUCACCCAUGUUACUCGCCUGC [Fiskers BMX 4 - 75] (puzzle: Brourd's mod of Exclusion 4) = bottom end
• AAGAAACAUGAGGAUCACCCAUGUGAGGAUAUGAGUAAGAAAAGAAAAGAAAGAAGACUCAGAAGGCACAAAGG [salish99-ex1_r3_074] (puzzle: Exclusion 1) = top end
• GGGAAACAUGAGGAUCACCCAUGUAAGGAUAUGCAAAAGGAUAUAGAAGGAAAAAAAAGCAGAAGGUACAAAGG [salish99-ex1_r3_100] (puzzle: Exclusion 1) = midrange
• AAAAUGUCAGGAUAUGUGAAAGAAAAGAAAAGAAAAGAAAAACAGAAGGGACAUGAGGAUCACCCAUGUAAGAA [Exclusion 4 #3] (puzzle: Exclusion 4) = bottom end

Note: place this sequence into its band. Item: ACCCAACAUGAGGAUCACCCAUGUCAGGAUAUCCUCGGGAAACCAAAAGAGGAGCCGAGGAGAAGGGACAGAGG [ChP 04-04-2015 #5] (puzzle: Exclusion 1)
top end

Hi there! Could you help me figure out the category for UUUUUACAUGAGGAUCACCCAUGUCAGGAUAUCCUUAUAUUUUAUUAUUUUAUUUUUUGGAGAAGGGACUAUUA [My solution] (puzzle: Exclusion 1) please?
top end
